system: UACC-257; assay: NCI tumour cell line growth inhibition, 48 h
The source made the active and inactive calls. Rule as the data show it: active = GI50 up to about 1.1 µM and inactive = higher. Bridge positions count the residues as written; N and C are the ends. Square brackets hold non-standard residues; d marks the D form. Peptide text beside a SMILES is read from it. I, II: the chains in the order shown. * marks the point of attachment. Quinoxaline2carbonyl = O=C(c1cnc2ccccc2n1)*; NMeV = CN[CH](C(=O)O)C(C)C; NMeC = CN[CH](CS)C(=O)O
Classes used: active, inactive

{"columns": ["Compound", "Assigned Class"],
 "data": [
  ["CC(=O)/C(=N\\N=C(N)N)c1ccccc1", "inactive"],
  ["O=c1o[nH]/c(=N/c2ccccc2)n1-c1ccccc1", "inactive"],
  ["CCN1CCCCCCCCCC(=N/O)/C(=N\\O)C1", "inactive"],
  ["COc1ccc(C(=O)Cc2c(C(=O)c3ccccc3)c3ccccc3n2C(=O)c2ccccc2)cc1", "inactive"],
  ["O=C(O)c1ccccc1C(=O)OCC1CCCN2CCCCC12 (stereo not drawn)", "inactive"],
  ["CC1(C)C(OC(=O)c2ccccc2)C[C@]23CCC[C@](C)(C[C@@H](O)C12)C3 (stereo partly drawn)", "inactive"],
  ["C/C=C/OC1C(C2COC(C)(C)O2)OC2OC(C)(C)OC21 (stereo not drawn)", "inactive"],
  ["ClC1CCC2OOC1O2 (stereo not drawn)", "inactive"],
  ["CC[C@H](C)[C@@H]([C@@H](CC(=O)N1CCC[C@H]1[C@H](OC)[C@@H](C)C(=O)NCCc1ccccc1)OC)N(C)C(=O)C(NC(=O)[C@H](C(C)C)N(C)C)C(C)C (stereo partly drawn)", "active"],
  ["CC1NC(=O)C(NC(=O)c2cnc3ccccc3n2)COC(=O)C(C(C)C)N(C)C(=O)C2CSSCC(C(=O)N(C)C(C(C)C)C(=O)OCC(NC(=O)c3cnc4ccccc4n3)C(=O)NC(C)C(=O)N2C)N(C)C1=O (stereo not drawn) (I: Quinoxaline2carbonyl-SA[NMeC][NMeV] / II: Quinoxaline2carbonyl-SA[NMeC][NMeV]; ester I:1-II:C, I:C-II:1; disulfide I:3-II:3; configuration not given here)", "active"],
  ["COc1ccc(/C=C2\\N=C(N3CCCCC3)NC2=O)cc1", "inactive"],
  ["O=C(c1ccc(Cl)cc1)N(C(=S)OCc1ccccn1)c1ccccc1", "inactive"],
  ["C=CCCn1nc(-c2ccccc2)oc1=O", "inactive"],
  ["O=c1c2ccccc2nnn1-c1n[nH]c2ccccc12", "inactive"],
  ["O=C(O)CNC(=O)c1ccc2cc(C(=O)N3CC(CCl)c4ccc([N+](=O)[O-])cc43)[nH]c2c1 (stereo not drawn)", "inactive"],
  ["COC(=O)C1=C(C)N2CCCOC2(C)C(C(=O)OC)C1c1cccc(Cl)c1 (stereo not drawn)", "inactive"],
  ["CCC1c2[nH]c3ccccc3c2C[C@H]2C(=O)NC(CCCCNC(=O)OC(C)(C)C)C(=O)N12 (stereo partly drawn)", "inactive"],
  ["O=C(O)/C=C/C(=O)Nc1nc[nH]n1", "inactive"]
]}
